Test: Toxicity liver stage against HepG2, at 10uM
Assay type: cell-based
Set-up: test concentration 10 uM, cell line HepG2-A16-CD81EGFP
Settings: human, HepG2-A16-CD81EGFP cells; read-out: INHIBITION
Exercise: state measured cytotoxicity at 10 µM for each of the compounds provided.
The answer is to be given in %; state only the numeric part.

Entry `CCc1ccc(-c2noc(Cn3nc(C(N)=O)ccc3=O)n2)cc1` has what cytotoxicity at 10 µM?
-4.22

What about this compound? `C[C@@H]1CN(CC(=O)NCc2ccccn2)C[C@]1(C)O`
-5.68

What about this compound? `Cc1ccc(C(=O)N(Cc2ccccc2F)C2CC2)c(=O)[nH]1`
0.846

What about this compound? `CS(=O)(=O)Nc1ccc(-n2c(CCCO)nc3ccccc32)cn1`
-3.14

What about this compound? `N#CCCN(Cc1cccnc1)C(=O)Cc1ccc(-n2cnnn2)cc1`
2.32

What about this compound? `CSc1ccc(C)c(C(=O)Nc2c(C(N)=O)n[nH]c2C)c1`
3.36

====

Exercise: state measured cytotoxicity at 10 µM for each of the compounds provided.
Test: Toxicity liver stage against HepG2, at 10uM
Assay type: cell-based
Set-up: test concentration 10 uM, cell line HepG2-A16-CD81EGFP
Settings: human, HepG2-A16-CD81EGFP cells; read-out: INHIBITION
The answer is to be given in %; state only the numeric part.

Entry Cc1cnccc1Cn1ccnc1C1CCOC1 (stereo unspecified) has what cytotoxicity at 10 µM?
-2.53

What about this compound? `O=C(c1ccnnc1)N1CCCn2nnc(COCC3CC3)c2C1`
7.95

What about this compound? `O=C1C[C@@H]2CCN(Cc3ccccc3)C[C@@H]2CCN1c1ccccc1`
3.16

What about this compound? `O=C(C[C@@H]1COC[C@H]2CN(C(=O)c3ccccn3)C[C@@H]12)N1CCCC1`
-104

What about this compound? Cc1ncc2c(n1)CCCC2NC(=O)c1ccccc1C(=O)O (stereo unspecified)
-11.7

What about this compound? `Cn1cc(C(=O)N2CCC(Cc3nccs3)CC2)cn1`
7.63

What about this compound? Cc1cc(C)n(CC2CN(c3nnc(C)c(C)c3C#N)CCO2)n1 (stereo unspecified)
-18.2

What about this compound? `O=C(c1cnoc1)N1CCC[C@]2(C[C@@H](Oc3ccccn3)CO2)C1`
-5.96

What about this compound? `O=C(c1cc2c(s1)CCC2)N1CCC(c2cnccn2)CC1`
-2.34

What about this compound? `O=C(c1c[nH]c(=O)c(Cl)c1)N1C[C@H]2CC[C@@H](C1)N(CC1CCC1)C2`
-153

What about this compound? `CC(C)CN1CCN(C(=O)CCn2cccn2)CC1`
-5.45

====

Assay: Toxicity liver stage against HepG2, at 10uM
Type: cell-based
Design: test concentration 10 uM, cell line HepG2-A16-CD81EGFP
Conditions: human, HepG2-A16-CD81EGFP cells; read-out: INHIBITION
observation_type: cytotoxicity at 10 µM (%)
The answer is to be given in %; state only the numeric part.

Entry `COC(=O)c1cccc(C(=O)N(C)Cc2ccsc2)c1` has what cytotoxicity at 10 µM?
10.7

What about this compound? `CC(C)(C)c1noc(OCC(=O)NCC(F)(F)F)n1`
8.81

What about this compound? COC(=O)C1(C)CCN(C(=O)NCCc2c(C)[nH]c3ccccc23)C1 (centres undefined)
0.807

What about this compound? `O=C(NCc1ccncc1)N1CC(Cc2ccccc2F)C1`
-8.85

What about this compound? `CCN(CC)S(=O)(=O)CCNC(=O)c1cc2cccc(F)c2o1`
-3.12

What about this compound? O=C(c1ccsc1)N1CCC2(CCN2Cc2ccc(F)cc2)C1 (centres undefined)
-144

What about this compound? `NCCC(=O)N1CCC2(CC1)CN(C(=O)Cc1cccc(Cl)c1)CCO2`
5.56

What about this compound? `CCCN1CCC2(CC1)CN(C(=O)c1cccnc1)c1ccc(F)cc12`
-104

What about this compound? CC(CNS(N)(=O)=O)c1ccc(F)c(F)c1 (centres undefined)
-12.1

What about this compound? CCN1CCC(CC(=O)N2CCCCC2CCn2cccn2)CC1 (centres undefined)
-5.02

What about this compound? CCN(CC)S(=O)(=O)N1CCCN(CC2CCCO2)CC1 (centres undefined)
5.69

What about this compound? CC(Cn1cccn1)NC(=O)N1CCN(Cc2cccs2)CC1 (centres undefined)
2.31

What about this compound? Fc1ccccc1OCCN1CCCCC1Cn1cncn1 (centres undefined)
-18.9

What about this compound? Cc1csc(C2CCCCN2C(=O)c2cnn3ccc(C)nc23)n1 (centres undefined)
-5.85

What about this compound? Cc1c(C(=O)OCC2CC(=O)N(c3ccccc3)C2)cnn1C(C)C (centres undefined)
-3.52

What about this compound? `COCc1nc(C2CC2)nn1-c1cc(Cl)ccc1OC`
-10.2

What about this compound? O=C(CCc1ccccn1)NC1CCN(c2cccc(Cl)c2)C1 (centres undefined)
17.1

What about this compound? `CNc1nc(CNC(=O)Nc2cccc(F)c2)cs1`
-5.45

What about this compound? `CN(Cc1ccccc1)C(=O)c1nc(S(C)(=O)=O)n2ccccc12`
-7.36

What about this compound? `CN(CCOc1ccc(Br)cc1)Cc1cscn1`
5.25

What about this compound? `Cn1cc(C(=O)N2CC[C@@]3(O)CCN(C(=O)C4CCC4)C[C@H]3C2)cn1`
-140

What about this compound? O=C(O)C1(Cc2ccc(F)cc2F)CCCN(Cc2ccncc2)C1 (centres undefined)
-2.74

What about this compound? `Cn1nc(CNC(=O)C2CCN(S(C)(=O)=O)CC2)cc1C1CC1`
-2.87

What about this compound? CN(C)S(=O)(=O)N1CCCC1C(=O)N1CCSCC1 (centres undefined)
6.67
